Cited source for all entries: patent US20120277143A1

Target: T1, human IL13 R130Q (human, UniProt P35225 35-146, biotinylated (sites not given))
T1 construct: Peprotech; also called IL13R13Q; R111Q
T1 sequence (P35225 35-146 limits assumed, stated change not applied): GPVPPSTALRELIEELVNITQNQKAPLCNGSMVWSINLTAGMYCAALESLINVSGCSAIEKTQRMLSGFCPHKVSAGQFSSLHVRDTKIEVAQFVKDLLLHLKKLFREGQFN
Experiment Summary: IL13Ra2 binding inhibition; assay not re-described (Luminex of Example 2)
pIC50: −log10 of the molar value.
Value Type: pIC50

{"columns": ["Binder", "Observed Result"],
 "data": [
  ["C06_53G6_V1_C01_6G9_V1 (designed binder, bispecific IL4/IL13 ankyrin repeat protein with (GGGGS)4 linker; also called bispecific AR protein) DLGKKLLEAARAGQDDEVRILMANGADVNATDDWGDTLLHLAATDGHLEIVEVLLKAGADVNANDAIGDTPLHLAALYGHLEIVEVLLKYGADVNATDLHGFTPLHLAAFWGHLEIVEVLLKHGADVNAQDKFGKTAFDISIDNGNEDLAEILQKLNGGGGSGGGGSGGGGSGGGGSDLDKKLLEAARAGQDDEVRILMANGADVNARDSYGSTPLHLAAREGHLEIVEVLLKYGADVNAADFIGDTPLHLAAYRGHLEIVEVLLKYGADVNASDITGETPLHLAAQIGHLEIVEVLLKHGADVNAQDKFGKTAFDISIDNGNEDLAEILQKLN", 9.70],
  ["C06_28E5_V1_C01_6G9_V1 (designed binder, bispecific IL4/IL13 ankyrin repeat protein with (GGGGS)4 linker; also called bispecific AR protein) DLGKKLLEAARAGQDDEVRILMANGADVNAADDSGITPLHLAAEDGHLEIVEVLLKAGADVNAQDNLGDTPLHLAAWTGHLEIVEVLLKAGADVNAYDISGITPLHLAAFYGHLEIVEVLLKHGADVNAQDKFGKTAFDISIDNGNEDLAEILQKLNGGGGSGGGGSGGGGSGGGGSDLDKKLLEAARAGQDDEVRILMANGADVNARDSYGSTPLHLAAREGHLEIVEVLLKYGADVNAADFIGDTPLHLAAYRGHLEIVEVLLKYGADVNASDITGETPLHLAAQIGHLEIVEVLLKHGADVNAQDKFGKTAFDISIDNGNEDLAEILQKLN", 10.44],
  ["C01_6G9_V1_C06_28E5_V1 (designed binder, bispecific IL13/IL4 ankyrin repeat protein with (GGGGS)4 linker; also called bispecific AR protein) DLDKKLLEAARAGQDDEVRILMANGADVNARDSYGSTPLHLAAREGHLEIVEVLLKYGADVNAADFIGDTPLHLAAYRGHLEIVEVLLKYGADVNASDITGETPLHLAAQIGHLEIVEVLLKHGADVNAQDKFGKTAFDISIDNGNEDLAEILQKLGGGGSGGGGSGGGGSGGGGSRSDLGKKLLEAARAGQDDEVRILMANGADVNAADDSGITPLHLAAEDGHLEIVEVLLKAGADVNAQDNLGDTPLHLAAWTGHLEIVEVLLKAGADVNAYDISGITPLHLAAFYGHLEIVEVLLKHGADVNAQDKFGKTAFDISIDNGNEDLAEILQKLN", 10.49],
  ["C06_44C12_V2_C01_6G9_V1 (designed binder, bispecific IL4/IL13 ankyrin repeat protein with (GGGGS)4 linker; also called bispecific AR protein) DLGKKLLEAASAGQDDEVHILMANGADVNALDDSGYTPLHLAAEDGHLEIVEVLLKHGADVNAADRLGDTPLHLAAFVGHLEIVEVLLKAGADVNAVDLAGVTPLHVAAFYGHLEIVEVLLKAGADVNAQDKFGKTAFDISIDNGNEDLAEILQKLNGGGGSGGGGSGGGGSGGGGSDLDKKLLEAARAGQDDEVRILMANGADVNARDSYGSTPLHLAAREGHLEIVEVLLKYGADVNAADFIGDTPLHLAAYRGHLEIVEVLLKYGADVNASDITGETPLHLAAQIGHLEIVEVLLKHGADVNAQDKFGKTAFDISIDNGNEDLAEILQKLN", 10.55]
]}
